System: IMR-90
Assay Text: relative cell viability (ATPlite) vs untreated control (fraction); higher = less toxic
Protocol Conditions: 1 µM; 72 h
Where a name gives a salt, the structure may show the parent alone.
# if measured relative cell viability < 1: y  # else: n

Compound	Category Label
c1ccc2c(-c3ccncc3)c[nH]c2c1	y
CC(C)n1cnc2c(NCc3ccccc3)nc(NCCCO)nc21	n
Nc1ncnc2c1c(I)cn2[C@@H]1O[C@H](CO)[C@@H](O)[C@H]1O	y
Nc1nccc(-c2c(-c3ccc(F)cc3)ncn2C2CCNCC2)n1	y
NS(=O)(=O)c1ccc(N=Nc2c(O)[nH]c3ccc(Br)cc23)cc1	n
CN(C)CCCn1cc(C2=C(c3c[nH]c4ccccc34)C(=O)NC2=O)c2ccccc21 [Bisindolylmaleimide I]	y
CCOC(=O)c1c(C)[nH]c(/C=C2\C(=O)Nc3ccccc32)c1C	y
CO[C@H]1C[C@@H]2CC[C@@H](C)[C@@](O)(O2)C(=O)C(=O)N2CCCC[C@H]2C(=O)O[C@H]([C@H](C)C[C@@H]2CC[C@@H](O)[C@H](OC)C2)CC(=O)[C@H](C)/C=C(\C)[C@@H](O)[C@@H](OC)C(=O)[C@H](C)C[C@H](C)/C=C/C=C/C=C/1C	y

Qu. Problem: For the compound `COc1cc(SC)ccc1C(=O)N1CCC(Cc2ccccc2)CC1` , is relative cell viability under 1?
Ans. n

Qu. Problem: For the compound CC[C@@H](CO)Nc1nc(NCc2ccc(-c3ccccn3)cc2)c2ncn(C(C)C)c2n1 [CR8, (S)-Isomer] , is relative cell viability under 1?
Ans. y

Qu. Problem: For the compound COc1ccc2c(c1)c1c3c(c4c5ccccc5n(C)c4c1n2CC(O)CN(C)C)C(=O)NC3=O (stereo not drawn) [Gö 7874, Hydrochloride] , is relative cell viability under 1?
Ans. y

Qu. Problem: For the compound CCC(CO)Nc1nc(NCc2ccccc2)c2ncn(C(C)C)c2n1 [Roscovitine, (S)-Isomer] , is relative cell viability under 1?
Ans. n

Qu. Problem: For the compound `CS(=O)(=O)c1ccc(-c2nc(-c3ccc(F)cc3)c(-c3ccncc3)[nH]2)cc1` , is relative cell viability under 1?
Ans. n

This collection of values is drawn from the supplement of paper PMC4100887.
